Hey, just so you know, these numbers are from patent US20020115661A1.

- PROTOCOL SUMMARY: Oral rising single-dose pharmacokinetic study in healthy subjects
- Type: in vivo, human
- CONDITION INFO: human, plasma, oral, 400-mg dose, read-out: additional elimination half-life (converted)
RECORDED ENDPOINT: half-life

Input line: What measured half-life goes with CCc1cc(C2=C(C(=O)[O-])N(c3ccccc3C(F)(F)F)S(=O)(=O)c3ccccc32)cc2c1OCO2.[K+] ?
Output line: ~13 h

###

- PROTOCOL SUMMARY: Plasma CI-1034 concentrations in anesthetized dogs
- Type: in vivo
- CONDITION INFO: intravenous, dog, 40 mg/kg, 60 minutes postdose, N = 1
RECORDED ENDPOINT: concentration at 60 min (µg/mL)
# output: bare number, implied unit µg/mL

Input line: What measured concentration at 60 min goes with CCc1cc(C2=C(C(=O)[O-])N(c3ccccc3C(F)(F)F)S(=O)(=O)c3ccccc32)cc2c1OCO2.[K+] [CI-1034, monopotassium salt] ?
Output line: 230
